The entries below come with measured pKi values attached.
- Measured Target: Sodium-dependent dopamine transporter (Rattus norvegicus)
- Sequence (P23977 whole entry): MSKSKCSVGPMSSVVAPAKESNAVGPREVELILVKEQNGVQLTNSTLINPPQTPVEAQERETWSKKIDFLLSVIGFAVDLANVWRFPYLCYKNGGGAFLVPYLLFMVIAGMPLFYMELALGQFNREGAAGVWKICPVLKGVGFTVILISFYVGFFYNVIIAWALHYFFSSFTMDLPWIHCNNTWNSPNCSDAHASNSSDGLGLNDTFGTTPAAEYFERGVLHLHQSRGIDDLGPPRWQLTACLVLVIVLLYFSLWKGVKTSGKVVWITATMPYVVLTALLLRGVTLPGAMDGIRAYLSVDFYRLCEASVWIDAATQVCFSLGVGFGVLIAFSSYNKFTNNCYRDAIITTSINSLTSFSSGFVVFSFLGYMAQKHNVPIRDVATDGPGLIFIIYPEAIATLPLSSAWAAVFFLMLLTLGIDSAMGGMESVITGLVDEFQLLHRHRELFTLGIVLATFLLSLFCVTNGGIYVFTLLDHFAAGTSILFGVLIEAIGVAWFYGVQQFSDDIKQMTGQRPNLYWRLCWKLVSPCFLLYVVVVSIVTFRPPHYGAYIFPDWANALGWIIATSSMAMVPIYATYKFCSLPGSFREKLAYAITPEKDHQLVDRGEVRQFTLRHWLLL
- Assay Text: Displacement of [3H]WIN-from DAT in rat striatum
Keep in mind that pKi stands for -log10 of concentration in molar terms.

Past entries and their recorded results:
compound_smiles=O[C@H](CN1CCN2C[C@@H]1CC[C@H]2C(c1ccccc1)c1ccccc1)c1ccccc1 measured_target="Sodium-dependent dopamine transporter (Rattus norvegicus)" value_observed=5.98
compound_smiles=O[C@H](CN1CCN2C[C@@H]1CC[C@H]2C(c1ccccc1)c1ccccc1)c1ccc(F)cc1 measured_target="Sodium-dependent dopamine transporter (Rattus norvegicus)" value_observed=6.19
compound_smiles=O[C@@H](Cc1ccccc1)CN1CCN2C[C@@H]1CC[C@H]2C(c1ccccc1)c1ccccc1 measured_target="Sodium-dependent dopamine transporter (Rattus norvegicus)" value_observed=7.33

Next item in the queue.
I'd like to know its pKi. The compound in question is "O[C@@H](CCN1CCN2C[C@@H]1CC[C@H]2C(c1ccccc1)c1ccccc1)c1ccc(F)cc1" 7.87

* * *

- Organism: Rattus norvegicus
- Assay Text: Ratio of Ki for NET to Ki for DAT in rat brain
- Type: tissue-based
Parameter: Ratio Ki
# answer = number (no unit)

compound_smiles=O[C@H](Cc1ccccc1)CN1CCN2C[C@@H]1CC[C@H]2C(c1ccccc1)c1ccccc1 parameter="Ratio Ki" value_observed=8.8

Returns the measured Ratio Ki for the input molecule. Input: "O[C@@H](CN[C@H]1CC[C@@H](C(c2ccccc2)c2ccccc2)NC1)c1ccc(F)cc1" 6

Need Ratio Ki, item "O[C@H](CCN1CCN2C[C@@H]1CC[C@H]2C(c1ccccc1)c1ccccc1)c1ccc(F)cc1" 9.2

Fill in the blank: the reported Ratio Ki of "O[C@H](CN[C@H]1CC[C@@H](C(c2ccccc2)c2ccccc2)NC1)Cc1ccccc1" is ____. 9.1
